# tgt: SEAP-His (Homo sapiens, UniProt P05187)
# Sequence (P05187 23-511 limits assumed): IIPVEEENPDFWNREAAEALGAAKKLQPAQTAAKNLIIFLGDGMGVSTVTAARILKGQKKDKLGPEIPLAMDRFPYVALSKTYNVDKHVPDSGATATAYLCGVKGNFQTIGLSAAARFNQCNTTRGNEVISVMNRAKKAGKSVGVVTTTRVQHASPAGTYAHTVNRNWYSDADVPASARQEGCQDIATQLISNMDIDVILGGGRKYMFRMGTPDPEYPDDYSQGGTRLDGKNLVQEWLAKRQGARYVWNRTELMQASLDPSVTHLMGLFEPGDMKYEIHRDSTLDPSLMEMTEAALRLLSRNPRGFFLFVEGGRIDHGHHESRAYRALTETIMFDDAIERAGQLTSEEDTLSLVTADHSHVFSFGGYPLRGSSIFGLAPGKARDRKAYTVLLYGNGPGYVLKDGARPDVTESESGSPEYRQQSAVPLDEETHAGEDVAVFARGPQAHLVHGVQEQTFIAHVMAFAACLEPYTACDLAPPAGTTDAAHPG
# assay text: Selectivity ELISA of humanized antibodies for human Eph receptor
# Format: binding
# test parameters: coated protein 1 nM
recorded endpoint: SEAP-His: absorbance at 450 nm, percentage with respect to hEphA4-SEAP-His as 100% (%)
One number for each entry, in %.

Which SEAP-His: absorbance at 450 nm, percentage with respect to hEphA4-SEAP-His as 100% reading was recorded for the molecule 89 (antibody, V domains shown, constant regions without entry; synthetic humanized antibody light chain variable region sequence; synthetic humanized antibody heavy chain variable region sequence) VL: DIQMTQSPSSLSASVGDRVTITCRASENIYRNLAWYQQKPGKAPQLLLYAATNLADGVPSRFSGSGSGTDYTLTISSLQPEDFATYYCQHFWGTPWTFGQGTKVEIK VH: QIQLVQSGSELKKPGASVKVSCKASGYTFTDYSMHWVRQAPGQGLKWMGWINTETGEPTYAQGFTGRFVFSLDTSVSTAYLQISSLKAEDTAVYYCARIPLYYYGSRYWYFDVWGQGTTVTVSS ?
5.8
